# System: PKCε translocation in cultured DRG neurons
# ASSAY DETAILS: PKCε translocation to the plasma membrane in cultured DRG neurons (immunocytochemistry, 50 cells per culture counted)
# Format: cell-based, rat
# MEASUREMENT PARAMETERS: 15 min pretreatment (ICI 118,551 50 μM, D-609 30 μM, U73122/U73343 10 μM, 1-/2-butanol 50 mM, BIM 100 nM), then isoproterenol 1 μM 30 s
PARAMETER MEASURED: PKCε translocating cells after inhibitor pretreatment and isoproterenol stimulation

Example molecules with recorded PKCε translocating cells after inhibitor pretreatment and isoproterenol stimulation:
1) S=C([S-])OC1CC2CC1C1CCCC21.[K+] [D-609]; 20.8±2.9%
2) COc1ccc2c(c1)CC[C@@H]1[C@@H]2CC[C@]2(C)[C@@H](NCCCCCCN3C(=O)C=CC3=O)CC[C@@H]12 [U73122]; 0.3±0.3%

-- ask # input molecule: COc1ccc2c(c1)CC[C@@H]1[C@@H]2CC[C@]2(C)[C@@H](NCCCCCCN3C(=O)CCC3=O)CC[C@@H]12 [U73343] ; wanted: its PKCε translocating cells after inhibitor pretreatment and isoproterenol stimulation
-- reply 15.3±1.9%

-- ask Do the same for CCC(C)O (stereo not drawn) [2-butanol] please
-- reply 16.0±2.4%

-- ask Do the same for Cc1ccc(OCC(O)C(C)NC(C)C)c2c1CCC2 (stereo not drawn) [ICI 118,551] please
-- reply 3.0%±1.1%

-- ask Do the same for CCCCO [1-butanol] please
-- reply 5.5±1.1%
